Biological target: Thioredoxin reductase 1, cytoplasmic (Rattus norvegicus)
Test: qHTS Assay for Inhibitors of Mammalian Selenoprotein Thioredoxin Reductase 1 (TrxR1) (AID 488773);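 also: drop in NADPH fluorescence over an 8 min run after selenite addition; nearly all actives have a fitted effect of over 40% in size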
Details: purified TrxR1 enzyme activity; inhibition; series mostly up to 57.1 µM
Records with an inconclusive call do not appear. Active and inactive are the calls of the source. Calls follow the shape of the dose curve; as a rule, active = well fitted inhibition curve with a large enough effect; inconclusive = small, poorly fitted or top-dose-only effect; inactive = no such curve, though single readings can be large or run the other way.
Endpoint: outcome

CCCN1CC[C@@H]2c3cc(O)ccc3CC[C@@H]21 inactive
CO[C@H]1CC=C2CCN3CCC4=C(CC(=O)OC4)[C@]23C1 inactive
O=[N+]([O-])c1ccc2nc(N3CCNCC3)ccc2c1 inactive
CCCN(CCC)CCc1c[nH]c2ccc(C(N)=O)cc12 inactive

---

System: HACAT
Assay: qHTS assay to identify novel small-molecules to repurpose for Merkel cell carcinoma treatment (AID 1296009); also: nearly all actives have a fitted effect of over 60% in size
Settings: MCC and control cell lines, CellTiter-Glo viability, 72 h; at 44.8 µM (top of the series) unless noted
Inconclusive results are not listed. Calls of active or inactive are those of the source. Calls come from the whole dose curve; as a rule, active = well fitted inhibition curve with a large enough effect; inconclusive = small, poorly fitted or top-dose-only effect; inactive = flat fitted curve, though single readings scatter.
Endpoint: outcome

Example entries and their recorded answers appear below.
Molecule	Endpoint	Reported measurement
C[C@H](NC(=O)Cc1cc(F)cc(F)c1)C(=O)N[C@@H]1N=C(c2ccccc2)c2ccccc2N(C)C1=O	outcome	inactive
CCN1C[C@]2(OC(=O)c3ccccc3NC(C)=O)CC[C@H](OC)[C@@]34[C@@H]2C[C@@H]([C@@H]13)[C@@]1(O)C[C@H](OC)[C@H]2C[C@@H]4[C@]1(O)[C@H]2OC	outcome	inactive
CCCCCOc1cc2c(cc1-c1cc(/C=C/C(=O)O)ccc1O)C(C)(C)CCC2(C)C	outcome	inactive
C=C1[C@@H]2CC[C@@]3(C)[C@H](c4ccoc4)OC(=O)C[C@]13O[C@H]1CC(=O)C(C)(C)[C@H](C(OC(C)=O)C(=O)OC)[C@]12C (some centres not stated)	outcome	inactive [at 17.4 µM]
COCC1OC(=O)c2coc3c2C1(C)C1=C(C3=O)C2CCC(=O)C2(C)CC1O (configuration not stated)	outcome	inactive

Bench note: what outcome did N#C[C@@H](O[C@@H]1O[C@H](CO[C@@H]2O[C@H](CO)[C@@H](O)[C@H](O)[C@H]2O)[C@@H](O)[C@H](O)[C@H]1O)c1ccccc1 show?
inactive [at 17.4 µM]

Bench note: what outcome did CCC(C)(C#N)O[C@@H]1O[C@H](CO)[C@@H](O)[C@H](O)[C@H]1O (some centres not stated) show?
inactive
